B1: glmS ribozyme (parent)
chain: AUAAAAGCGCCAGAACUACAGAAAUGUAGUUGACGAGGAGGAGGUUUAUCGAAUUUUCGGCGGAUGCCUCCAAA

Variants of: B1
Test: self-cleavage kobs at 640 uM GlcN6P; higher = faster cleavage; RNA array
Conditions: with glucosamine-6-phosphate
This sample holds only a part of the variants without activity.
Assign self-cleavage kobs at 640 uM GlcN6P to each entry below.
Express your answer in s⁻¹, writing the number without its unit.

// self-cleavage kobs at 640 uM GlcN6P lookup, key: U45A G59A
2.71e-05

Ok, now U46C U56A
0.000406

Another variant: U46G U47G
0.000551

Please do the same for U55G C70G as well.
0.00014

Now try U65C C71U .
0.000236

Also, A14U C67U C68G please.
0.000113

// next record U45G A53C C71U
0.000323

Also G7U C58G C68G ?
0.00042

Also need A12U U54A U69A , thanks.
0.000125
